Test system: Fibrinogen (Alexa647-labelled)
Assay: fibrinogen binders on compound microarrays, profiling panel, artefact control for SMM control-protein annotation, biochemical, small-molecule microarray, 635/667 nm fluorescence (AID 1131);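 further: z-score merges 667 nm fluorescence with per-spot signal-to-noise over triplicate slides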
Conditions: fibrinogen-A647 binding fluorescence, higher = more signal
Decide using composite z-score: a value greater than or equal to 0.8 is YES, a smaller one is NO.

Solved cases (5 shown):
{"columns": ["COMPOUND", "CATEGORY LABEL"],
 "data": [
  ["O=C1O[C@@H](c2ccccc2)[C@@H](c2ccccc2)N2[C@@H](c3ccccc3OCCO)[C@]3(C(=O)Nc4ccccc43)[C@@H](C(=O)Nc3nc4ccccc4s3)[C@H]12", "YES"],
  ["COC(=O)[C@H](Cc1ccccc1)N1CC2=C[C@@H](C3CC3)n3c(=O)n(C)c(=O)n3[C@H]2[C@@H]1[C@@H](O)Cc1ccccc1", "NO"],
  ["Cc1ccc(S[C@]2(C(=O)NCCCN(C)C)CC(=O)N(Cc3cc(C(F)(F)F)cc(C(F)(F)F)c3)[C@@H]2c2ccc(CO)cc2I)cc1", "NO"],
  ["COCCOC(=O)N1C(=O)[C@@]2(c3cc(C#CCCO)ccc31)[C@H](C(=O)N1CCCCCCC1)[C@H]1C(=O)O[C@H](c3ccccc3)[C@H](c3ccccc3)N1[C@@H]2c1ccc(OCCO)cc1", "NO"],
  ["CC1(C)[C@@H]2CC(C(O)C3C=CC4C(=O)N(c5ccccc5)C(=O)C4N3Nc3ccc([N+](=O)[O-])cc3)=C[C@H]1C2 (some centres undefined)", "YES"]
]}

Please examine the following record next.
Hello, I need to know if CCCC#C[Si](O[C@H](CC)c1cn(Cc2cccc(Cl)c2)nn1)(C(C)C)C(C)C has measured composite z-score not below 0.8. Thanks!
NO

Origin of values: PubChem BioAssay
